Data credit: PubChem BioAssay (NCI)

tested on: CCRF-CEM leukemia; test: NCI tumour cell line growth inhibition, 48 h
Items are presented alongside their recorded TGI.

{"Compound": "O=C1c2ccccc2C2(O)Oc3cccc(O)c3C12O (centres undefined)", "TGI": "> 100 µM"}
{"Compound": "COc1cnnc2c(C)c(-c3ccccc3)nn12", "TGI": "> 100 µM"}
{"Compound": "COc1cc(C2c3cc4c(cc3OC(N3CCOCC3)C2C)OCO4)cc(OC)c1OC(C)=O (centres undefined)", "TGI": "> 100 µM"}
{"Compound": "Cc1ccc(Nc2ccc(Nc3ccc(C)cc3S(=O)(=O)O)c3c2C(=O)c2ccccc2C3=O)c(S(=O)(=O)O)c1", "TGI": "> 100 µM"}
{"Compound": "CC(C)(C)c1nnc2n(c1=O)N=CC(c1ccc(Br)cc1)S2 (centres undefined)", "TGI": "> 100 µM"}
{"Compound": "Cc1ccsc1/C=N/Nc1ccccn1", "TGI": "> 100 µM"}
{"Compound": "O=C(NC(CO)CO)c1ccc2cc(C(=O)N3CC(CCl)c4ccc([N+](=O)[O-])cc43)[nH]c2c1 (centres undefined)", "TGI": "> 100 µM"}
{"Compound": "CCCCCCCCCC(=O)N[C@H]1CCc2cc(OC)c(OC)c(OC)c2-c2ccc(SC)c(=O)cc21", "TGI": "> 100 µM"}
{"Compound": "CCOC(=O)C1(C(=O)OCC)CC=C(C)CC12C(=O)Nc1ccccc12 (centres undefined)", "TGI": "> 100 µM"}
{"Compound": "COc1cc(C(CC(OC)OC)=C(C#N)C#N)cc(OC)c1OC", "TGI": "59.1 µM"}
{"Compound": "CC(C)(C)OC(=O)NCCNC(=O)CN(CC(=O)O)C1CCCCC1N(CC(=O)O)CC(=O)O (centres undefined)", "TGI": "> 100 µM"}
{"Compound": "CCc1cccc(C(C)CC)c1NC(=O)CC1C(=O)Nc2ccccc2S1=O (centres undefined)", "TGI": "90.3 µM"}
{"Compound": "COc1cccc2c1C(=O)c1c(O)c3c(c(O)c1C2=O)C[C@@](O)(/C(C)=N\\O)C[C@@H]3OC1CC(N)C(O)C(C)O1 (some centres undefined)", "TGI": "2.38 µM"}
{"Compound": "O=C1C=C(Nc2nc(C(=O)O)cc(=O)[nH]2)c2ccccc2C1=O", "TGI": "> 100 µM"}
{"Compound": "C=CCc1cccc2cc(C(=O)Nc3nc(C45CC6CC(CC(C6)C4)C5)cs3)c(=O)oc12", "TGI": "> 100 µM"}
{"Compound": "COC(=O)[C@H](Cc1ccccc1)NC(=O)[C@@H](OC)[C@@H]1Cc2cc3cc(OC4CC(OC5CC(O)C(O)C(C)O5)C(O)C(C)O4)c(C)c(O)c3c(O)c2C(=O)[C@H]1OC1CC(OC2CC(OC3CC(C)(O)C(O)C(C)O3)C(O)C(C)O2)C(O)C(C)O1 (some centres undefined)", "TGI": "> 14.3 µM"}
{"Compound": "C=CCNc1cccc2c1C(=O)c1ccccc1C2(O)CC=C (centres undefined)", "TGI": "52 µM"}
{"Compound": "CN(C)/C=N/S(=O)(=O)c1nn2c(C=O)c(-c3cc4ccccc4oc3=O)nc2s1", "TGI": "7.33 µM"}
{"Compound": "CCCC1C(C#N)(C#N)C(C#N)=C(N)C1(C)C(C)=O (centres undefined)", "TGI": "> 100 µM"}
